This collection of values is drawn from ChEMBL document CHEMBL5143551.

Field: IC50. Provide a value for each of the molecules that follow.
Assay: Inhibition of HIF-1 transcriptional activity in human HeLa cells transfected with hypoxia response element-dependent luciferase reporter gene under hypoxic conditions
Assay type: cell-based
Settings: Homo sapiens, HeLa
Numbers only, in µM.

The examples below pair each entry with its known result.
CC(C)CN[C@@H]1C2C[C@](OC(=O)Cc3ccccc3)(CC[C@H]2OC(=O)Cc2ccccc2)[C@H]2O[C@@H]12 = 31.7
CC(C)CC(=O)O[C@@H]1CC[C@@]2(OC(=O)CC(C)C)CC1[C@@H](NCc1ccccc1)[C@@H]1O[C@@H]12 = 24.7
CC(C)CC(=O)O[C@]12CC[C@@H](OC(=O)Cc3ccccc3)C(C1)[C@@H](NCc1ccccc1)[C@@H]1O[C@@H]12 (mixture of isomers) = 17.2

Batch of 3 molecules: report IC50 for each.
1. CC(C)CN[C@@H]1C2C[C@](OC(=O)CC(C)C)(CC[C@H]2OC(=O)CC(C)C)[C@H]2O[C@@H]12
2. CC(C)CN[C@@H]1C2C[C@](OC(=O)CC(C)C)(CC[C@H]2OC(=O)Cc2ccccc2)[C@H]2O[C@@H]12
3. O=C(Cc1ccccc1)O[C@@H]1CC[C@@]2(OC(=O)Cc3ccccc3)CC1[C@@H](NCc1ccccc1)[C@@H]1O[C@@H]12 (mixture of isomers)

**Result**
1: 21.7; 2: 20.4; 3: 19.5

**Query** Supply recorded IC50 for CC(C)CC(=O)O[C@@H]1CC[C@@]2(OC(=O)Cc3ccccc3)CC1[C@@H](NCc1ccccc1)[C@@H]1O[C@@H]12 here.
**Result** 31
